As shown below, each of these molecules has a reported hERG current change (%, negative = inhibition) at 1uM value.
targetOrTestSystem: human ether-à-go-go-related gene (hERG) potassium channel (human, UniProt Q12809)
Sequence (Q12809 whole entry, looked up): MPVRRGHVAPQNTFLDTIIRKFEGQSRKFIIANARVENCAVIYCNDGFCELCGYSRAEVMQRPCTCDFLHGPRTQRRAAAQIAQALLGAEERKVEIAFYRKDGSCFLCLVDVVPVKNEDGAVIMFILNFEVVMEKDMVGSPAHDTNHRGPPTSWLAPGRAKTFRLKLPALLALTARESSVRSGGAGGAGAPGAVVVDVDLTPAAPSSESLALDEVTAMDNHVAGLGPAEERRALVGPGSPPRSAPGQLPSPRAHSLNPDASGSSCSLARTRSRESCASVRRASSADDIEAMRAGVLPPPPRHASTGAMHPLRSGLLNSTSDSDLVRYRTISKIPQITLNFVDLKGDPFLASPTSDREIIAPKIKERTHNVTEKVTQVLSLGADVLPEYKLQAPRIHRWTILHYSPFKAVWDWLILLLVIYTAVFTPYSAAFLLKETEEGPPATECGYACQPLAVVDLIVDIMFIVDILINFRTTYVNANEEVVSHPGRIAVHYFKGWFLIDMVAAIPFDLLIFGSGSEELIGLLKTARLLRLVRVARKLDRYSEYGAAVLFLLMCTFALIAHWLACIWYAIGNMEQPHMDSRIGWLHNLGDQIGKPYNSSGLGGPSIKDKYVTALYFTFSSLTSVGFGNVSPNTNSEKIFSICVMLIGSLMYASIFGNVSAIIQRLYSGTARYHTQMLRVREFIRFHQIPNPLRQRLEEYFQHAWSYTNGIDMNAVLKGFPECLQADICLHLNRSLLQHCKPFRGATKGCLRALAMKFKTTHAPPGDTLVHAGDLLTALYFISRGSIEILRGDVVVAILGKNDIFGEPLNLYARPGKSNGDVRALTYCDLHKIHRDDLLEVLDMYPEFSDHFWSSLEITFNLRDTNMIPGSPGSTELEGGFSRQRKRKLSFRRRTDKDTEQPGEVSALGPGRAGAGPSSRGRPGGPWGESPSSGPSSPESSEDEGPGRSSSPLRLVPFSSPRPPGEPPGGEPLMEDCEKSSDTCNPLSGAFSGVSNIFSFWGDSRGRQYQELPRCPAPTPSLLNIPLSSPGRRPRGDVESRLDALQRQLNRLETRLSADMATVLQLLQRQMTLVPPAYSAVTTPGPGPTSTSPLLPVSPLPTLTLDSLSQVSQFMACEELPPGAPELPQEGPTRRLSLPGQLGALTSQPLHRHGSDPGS
assayOverview: primary screen, population patch clamp on CHO cells stably expressing hERG; higher = less effect of the substance
About 2,200 (0.71%) of roughly 310,000 compounds showed an effect of 50% or more. Effects have a minus sign here. The sample as a whole holds a higher share of strong results than the screen did.
Write the value in % as a bare number.

These solved cases illustrate the format of a correct answer.
Inquiry: # query: hERG current change (%, negative = inhibition) at 1uM | item Cc1nc2nc(C)c(CCC(=O)NC3CCCCC3)c(C)n2n1 | system: human ether-à-go-go-related gene (hERG) potassium channel (human, UniProt Q12809)
Reply text: 9.07

Inquiry: Under human ether-à-go-go-related gene (hERG) potassium channel (human, UniProt Q12809): hERG current change (%, negative = inhibition) at 1uM value of Cc1cccc(NC(=O)CSc2nnnn2C)n1 ?
Reply text: 12.6

Inquiry: For human ether-à-go-go-related gene (hERG) potassium channel (human, UniProt Q12809), provide hERG current change (%, negative = inhibition) at 1uM of Cc1cc2[nH]c3c(c[n+](C)c4ccccc34)c2cc1C.[I-] please.
Reply text: -75.9

Inquiry: Recorded hERG current change (%, negative = inhibition) at 1uM for COc1ccc2nc(NC(=O)c3ccoc3C)sc2c1 with human ether-à-go-go-related gene (hERG) potassium channel (human, UniProt Q12809), please?
Reply text: 17.6

Inquiry: Value wanted: hERG current change (%, negative = inhibition) at 1uM (human ether-à-go-go-related gene (hERG) potassium channel (human, UniProt Q12809)) of entry CCOC(=O)C(C)Oc1ccc(C2NC(=O)NC(C)=C2C(C)=O)cc1Br (centres unmarked)
Reply text: 4.32

Next:
Inquiry: Entry C=CC(=O)NC(C)(C)CCN1CCOCC1 , system human ether-à-go-go-related gene (hERG) potassium channel (human, UniProt Q12809): what hERG current change (%, negative = inhibition) at 1uM was measured?
Reply text: 8.55

Inquiry: // lookup hERG current change (%, negative = inhibition) at 1uM | system=human ether-à-go-go-related gene (hERG) potassium channel (human, UniProt Q12809) | key= Cc1cc2nnc(SCc3ccccc3)n2c(N)n1
Reply text: -5.86

* * *

targetOrTestSystem: human ether-à-go-go-related gene (hERG) potassium channel (human)
assayOverview: primary screen, population patch clamp on CHO cells stably expressing hERG; higher = less effect of the substance
Screen size: about 310,000 compounds; about 2,200 (0.71%) showed an effect of 50% or more. The effect is printed as a negative number. For the sample, strong results were picked, then their nearest neighbours and some compounds at random.
Each record here notes measured hERG current change (%, negative = inhibition) at 1uM.
Write the number in % without appending the unit.

The examples below pair each entry with its known result.
Inquiry: Given CCN(CC)CCCNC(=O)c1cn(C)c2ccc(S(=O)(=O)N(C)C3CCCCC3)cc2c1=O , state its recorded hERG current change (%, negative = inhibition) at 1uM.
Reply text: 12.2

Inquiry: # query: hERG current change (%, negative = inhibition) at 1uM of entry O=C1CC2(CCN(C(=O)c3cccc([N+](=O)[O-])c3)CC2)Oc2ccccc21
Reply text: -66.7

Inquiry: Requested read-out: hERG current change (%, negative = inhibition) at 1uM. Entry: O=C(COc1ccc(Cl)cc1)N1CCN(C2CCCC2)CC1.O=C(O)C(=O)O
Reply text: -68.4

Inquiry: Look up hERG current change (%, negative = inhibition) at 1uM: O=C1CC2(CCN(C(=O)c3ccc(Cl)cc3)CC2)Oc2ccccc21
Reply text: -63.7

Inquiry: What value of measured hERG current change (%, negative = inhibition) at 1uM is listed for CCOC(=O)c1ccc(NS(=O)(=O)c2ccc3oc(=O)[nH]c3c2)cc1 ?
Reply text: 7.04

New cases:
Inquiry: // lookup hERG current change (%, negative = inhibition) at 1uM for COc1ccccc1Nc1nc(N)nc(CN(C)C2CCCCC2)n1
Reply text: -11.7

Inquiry: So what's the measured hERG current change (%, negative = inhibition) at 1uM for this one? Cc1ccc(NCCC(=O)c2cccs2)cc1C
Reply text: 5.33

Inquiry: Give the measured hERG current change (%, negative = inhibition) at 1uM of Cc1ccc(OCCC(=O)OCC(=O)NC(=O)NC2CCCCC2)cc1 .
Reply text: 14.2

Inquiry: Please look up its hERG current change (%, negative = inhibition) at 1uM: O=C(O)C(=O)O.c1ccc(-c2ccccc2OCCCN2CCCC2)cc1
Reply text: -49.4

Inquiry: Name the recorded hERG current change (%, negative = inhibition) at 1uM for O=C1CC2(CCN(C(=O)c3cccc(F)c3)CC2)Oc2ccccc21 .
Reply text: -32.6

Inquiry: // query hERG current change (%, negative = inhibition) at 1uM value for entry Brc1ccccc1OCCCCN1CCCCC1
Reply text: -1.28

Inquiry: Any idea what hERG current change (%, negative = inhibition) at 1uM was measured for O=C(COc1ccc(Cl)cc1)N1CCN(Cc2ccc3c(c2)OCO3)CC1 ?
Reply text: -6.58
